experiment: MB-102 pig plasma concentration after intramuscular dosing
Type: in vivo
condition: Yorkshire, plasma, intramuscular, 3.2 mg/kg; pig 09801, IM, 3.2 mpk, 330 min; read-out: MB-102 Pig Plasma Conc.
assay_metric: concentration at 330 min (ng/mL)
Express your answer in ng/mL, writing the number without its unit.

Problem: Which measured concentration at 330 min value corresponds to Nc1nc(C(=O)N[C@H](CO)C(=O)O)c(N)nc1C(=O)N[C@H](CO)C(=O)O ?
Result: 261

* * *

experiment: MB-102 pig plasma concentration after subcutaneous dosing
Format: in vivo
condition: Yorkshire, pig, plasma, subcutaneous, 3.2 mg/kg, pig 52771, SubQ, 3.2 mpk, 240 min; read-out: MB-102 Pig Plasma Conc.
assay_metric: concentration at 240 min (µg/mL)
Kindly provide the numeric value in µg/mL only, without the unit symbol.

Problem: Suppose we examine the compound Nc1nc(C(=O)N[C@H](CO)C(=O)O)c(N)nc1C(=O)N[C@H](CO)C(=O)O ; what concentration at 240 min value has been reported?
Result: 2.25

The origin of these recorded values is patent US20220143222A1.
